Reference source for all entries: PubChem BioAssay (NCI)

Tested on: HCT-116 colon
Assay Protocol: NCI tumour cell line growth inhibition, 48 h
Where a SMILES comes first, the peptide text is derived from it. The star is where a group is joined. OBn = c1ccc(CO*)cc1
Observed Property: TGI

Q: Give its TGI value. Item: "CCC(=C(c1ccc(OCc2ccccc2)cc1)c1ccc(OCc2ccccc2)cc1)c1ccc(OC)cc1"
Result: > 100 µM

Q: Give its TGI value. Item: "Cc1ccnc2nc3[nH]c4ccccc4c3cc12"
Result: > 100 µM

Q: Give its TGI value. Item: "COc1ccc2c(c1)[n+]([O-])c(-c1nc3ccccc3s1)c(N)[n+]2[O-]"
Result: > 100 µM

Q: Give its TGI value. Item: "COC(=O)[C@@H](C)C[C@H](Cc1ccccc1)NC(=O)c1csc([C@@H](C[C@H](C(C)C)N(C)C(=O)[C@@H](NC(=O)[C@H]2CCCCN2C)C(C)C)OC(C)=O)n1"
Result: > 25 µM

Q: Give its TGI value. Item: CC(C)=CCC/C(C)=C/CC/C(=C/COP(=O)(OCc1ccc([N+](=O)[O-])o1)N(C)CCCCCl)C(C)(C)C (stereo not given)
Result: 11.8 µM

Q: Give its TGI value. Item: "COC(=O)c1cc(C#N)[nH]c1-c1cccs1"
Result: > 100 µM

Q: Give its TGI value. Item: CC1OC(O)CC(OC(=O)c2ccccc2)C1OC(=O)c1ccccc1 (stereo not given)
Result: 23.3 µM

Q: Give its TGI value. Item: "N#CC(C#N)=C1CCCCc2ccc([N+](=O)[O-])cc21"
Result: 54.8 µM

Q: Give its TGI value. Item: "O=C(O)Cc1[nH]cnc1C(=O)O"
Result: > 100 µM

Q: Give its TGI value. Item: "C=C[C@]1(C)C=C2C(=O)[C@@]3(O)OC(=O)[C@@]4(CCCC(C)(C)[C@H]34)[C@@]2(O)CC1"
Result: 2.86 µM

Q: Give its TGI value. Item: C=CC(c1ccccc1)C1(O)c2cccc(O)c2C(=O)c2c(O)cccc21 (stereo not given)
Result: 24.7 µM

Q: Give its TGI value. Item: "CCCCCNC1=CC(=O)c2ccccc2C1=O"
Result: > 61.7 µM

Q: Give its TGI value. Item: CNC1C(O)CC(OC2C/C=C(\C)C/C(C)=C/C=C/CCC(C)CNC(=O)/C=C/C=C/C2C)OC1C (stereo not given)
Result: 0.324 µM

Q: Give its TGI value. Item: "Cc1ccc(S(=O)(=O)n2cc(C(=O)C(=O)Nc3ccncc3)c3ccccc32)cc1"
Result: 23.1 µM

Q: Give its TGI value. Item: "O=C(CC(=O)C(F)(F)F)c1csc2ccccc12"
Result: > 100 µM

Q: Give its TGI value. Item: "CCOC(=O)/C(=C\NC(C)(C)C)c1nc2ccccc2o1"
Result: > 100 µM

Q: Give its TGI value. Item: "COC(=O)/C(C#N)=C(\Nc1ccccc1)N1CCCCC1"
Result: > 100 µM

Q: Give its TGI value. Item: "CCn1c(SCC(=O)NNC(=S)Nc2ccc(F)cc2)nc2ccccc2c1=O"
Result: > 100 µM

Q: Give its TGI value. Item: "Cn1c2cccc3nnc4cccc(c4c32)n1C"
Result: > 100 µM

Q: Give its TGI value. Item: CCOC(=O)C1=C(C)N(NC(=O)c2ccccc2)C2(O)CCCC12C(=O)OCC (stereo not given)
Result: > 100 µM

Q: Give its TGI value. Item: NC(CCC(=O)OCc1ccccc1)C(=O)NC(CCC(=O)OCc1ccccc1)C(=O)O (stereo not given) (H-Glu(OBn)-Glu(OBn)-OH; configuration not given here)
Result: > 100 µM

Q: Give its TGI value. Item: C=C(Cl)C(Br)(CBr)CCC(Br)C(C)(C)Br (stereo not given)
Result: 3.92 µM

Q: Give its TGI value. Item: "O=c1c2c3c(sc2nc2n1N=CN(c1ccc(Cl)cc1)C2)CCCC3"
Result: > 100 µM

Q: Give its TGI value. Item: "O=C(/C=C\Sc1nccc(C(F)(F)F)n1)c1ccc(Br)cc1"
Result: 25.5 µM

Q: Give its TGI value. Item: COC(=O)N/N=C(\C)C(CN1CCOCC1)C(c1ccccc1)c1cc2ccccc2oc1=O (stereo not given)
Result: > 100 µM

Q: Give its TGI value. Item: "O=C(Nc1ccc(Br)c(Cl)c1)c1cc(F)ccc1O"
Result: 2.08 µM

Q: Give its TGI value. Item: "Cc1ccc(C(=O)NC2CCCCC2)cc1-c1ccc(C(=O)NCC2CC2)cc1"
Result: > 25 µM

Q: Give its TGI value. Item: "CC(=C(C(=O)O)C(=O)O)c1cc(-c2cccs2)cc(-c2ccc(Cl)cc2)c1O"
Result: 29.1 µM

Q: Give its TGI value. Item: C/C1=C\CC[C@@]2(C)O[C@@H]2[C@H]2OC(=O)C(C)C2C[C@H]1O (stereo not given in full)
Result: > 100 µM

Q: Give its TGI value. Item: "CC(C)=CCC[C@@H](C)C1=C(Nc2ccccc2)C(O)=C(C)C(=O)C1=O"
Result: 16.9 µM

Q: Give its TGI value. Item: "COc1cnc2c(c1)C(=O)c1c-2n(CCCN2CCN(C)CC2)c(=O)c2cc(Cl)ccc12"
Result: > 100 µM

Q: Give its TGI value. Item: "COc1cc(C(=O)n2nc(N3CCN(C)CC3)c3cc(N)ccc32)cc(OC)c1OC"
Result: > 100 µM

Q: Give its TGI value. Item: COC1CC2CCC(C)[C@](O)(O2)C(=O)C(=O)N2CCCCC2C(=O)OC(C(C)CC2CCC(O)C(OC)C2)CC(=O)C(C)C=C(C)C(OC(=O)CN(C)C)C(OC)C(=O)C(C)CC(C)/C=C/C=C/C=C\1C (stereo not given in full)
Result: 22.2 µM

Q: Give its TGI value. Item: "COc1ccc(F)cc1C(=O)c1cnc(NC2CCN(S(C)(=O)=O)CC2)nc1N"
Result: > 25 µM

Q: Give its TGI value. Item: CC(=O)OCC1OC(S[As](C)C)C(OC(C)=O)C1OC(C)=O (stereo not given)
Result: 1.38 µM

Q: Give its TGI value. Item: "O=C(/C=C/c1ccccc1)CCC1C(=O)NC(=O)NC1=O"
Result: > 100 µM

Q: Give its TGI value. Item: "CC1=CCC[C@]2(C)C1=CC(=O)O[C@H]2c1ccoc1"
Result: > 100 µM

Q: Give its TGI value. Item: "C=CC1(c2ccc(Br)cc2)OCCCO1"
Result: > 100 µM

Q: Give its TGI value. Item: "C/C(=C\COP(=O)(O)OP(=O)(O)O)CC/C=C(\C)CNc1ccc([N+](=O)[O-])cc1"
Result: > 100 µM

Q: Give its TGI value. Item: "O=C1/C(=C/c2ccc(Cl)cc2)CN(C(=O)C(Cl)Cl)C/C1=C\c1ccc(Cl)cc1"
Result: 0.13 µM

###

Test system: SF-268 CNS
Assay Protocol: NCI tumour cell line growth inhibition, 48 h
Could you please report measured TGI for the items listed next?

Q: Give its TGI value. Item: "CCC[CH2][Sn]([CH2]CCC)([S]C1=NCCS1)[S]C1=NCCS1"
Result: 0.908 µM

Q: Give its TGI value. Item: "COc1cc(/C=N/NC2=NCCCN2)ccc1O"
Result: > 100 µM

Q: Give its TGI value. Item: "COc1cc(-c2c(C)c(C)nc(OC)c2C#N)cc(OC)c1OC"
Result: > 100 µM

Q: Give its TGI value. Item: COc1c(O)cc2c(c1O)C1O[C@H](CO)C(O)[C@H](O)[C@H]1OC2=O (some centres undefined)
Result: > 100 µM

Q: Give its TGI value. Item: COc1ccc(N2C(=O)/C(=C\c3cc(OC)c(OC)c(OC)c3)S(=O)(=O)C2c2ccccc2)cc1 (centres undefined)
Result: > 100 µM

Q: Give its TGI value. Item: "O=C(O)CC1(C(=O)O)CCCCC1"
Result: > 100 µM

Q: Give its TGI value. Item: "NC(=O)Oc1cc(OC(N)=O)cc(N(CCCl)CCCl)c1"
Result: 29.4 µM

Q: Give its TGI value. Item: CO[C@H](C(=O)N[C@@H](CCCCNC(=O)OCc1ccccc1)C(=O)OC(C)(C)C)[C@@H]1Cc2cc3cc(OC4CC(OC5CC(O)C(O)C(C)O5)C(O)C(C)O4)c(C)c(O)c3c(O)c2C(=O)[C@H]1OC1CC(OC2CC(OC3CC(C)(O)C(O)C(C)O3)C(O)C(C)O2)C(O)C(C)O1 (some centres undefined)
Result: 2.03 µM

Q: Give its TGI value. Item: CNC1C(O)CC(OC2C/C=C(\C)C/C(C)=C/C=C/CCC(C)CNC(=O)/C=C/C=C/C2C)OC1C (centres undefined)
Result: 1.78 µM

###

Tested on: NCI-H23 lung
Assay Protocol: NCI tumour cell line growth inhibition, 48 h
Observed Property: TGI

Q: Give its TGI value. Item: "CC(C)(C)C(=O)Nc1cccc(-c2ccc[nH]2)n1"
Result: > 100 µM

Q: Give its TGI value. Item: COC(=O)C1=CC2OC13CC1CCC3(C2=O)C1(C)C (configuration not stated)
Result: 32.1 µM

Q: Give its TGI value. Item: "COC(=O)[C@]12CSC[C@H]1C[C@H](c1ccc(N(C)C)cc1)N2"
Result: > 100 µM

Q: Give its TGI value. Item: "Cc1ncc([N+](=O)[O-])n1CCNC(=O)CCn1ccnc1[N+](=O)[O-]"
Result: > 100 µM

Q: Give its TGI value. Item: "CSc1sc(=S)sc1SC"
Result: > 100 µM

Q: Give its TGI value. Item: Cc1ccc(S(=O)(=O)n2cnc(CC(NC(=O)C3CCC(=O)N3C(=O)OCc3ccccc3)C(=O)N3CCCC3C(=O)NN)c2)cc1 (configuration not stated)
Result: > 100 µM

Q: Give its TGI value. Item: "O=C1CCSc2c(cnc3ccccc23)N1"
Result: > 100 µM

Q: Give its TGI value. Item: COC(=O)C1C(=O)O[C@@H](c2ccc(OC)cc2OC)C1C(=O)OC (some centres not stated)
Result: > 100 µM

Q: Give its TGI value. Item: "COC(=O)C#Cc1ccc([N+](=O)[O-])cc1"
Result: 3.68 µM

Q: Give its TGI value. Item: "COc1ccc(-c2nc(-c3nc4cc(C)c(C)cc4[nH]3)cc3c2[nH]c2ccccc23)cc1"
Result: 68.2 µM

Q: Give its TGI value. Item: "Nc1nncs1"
Result: > 4730 µM

Q: Give its TGI value. Item: O=C(O)c1cccc(CC(Br)C(=O)O)c1 (configuration not stated)
Result: > 100 µM
